From: ChEMBL document CHEMBL1127614

target: Neutrophil elastase (Homo sapiens, UniProt P08246); test: In vitro inhibition constant of human leukocyte elastase.
Sequence (P08246 whole entry): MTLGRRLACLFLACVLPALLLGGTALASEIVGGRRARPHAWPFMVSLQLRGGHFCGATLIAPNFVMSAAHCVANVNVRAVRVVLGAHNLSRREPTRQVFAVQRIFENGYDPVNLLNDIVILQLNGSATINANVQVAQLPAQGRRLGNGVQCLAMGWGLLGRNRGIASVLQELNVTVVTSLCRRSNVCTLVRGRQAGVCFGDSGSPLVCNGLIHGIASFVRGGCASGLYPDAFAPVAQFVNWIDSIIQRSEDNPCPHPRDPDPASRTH
propertyName: Ki (nM)
Quick note: give the figure in nM, leave out the unit.

In the examples that follow, each entry is paired with its recorded Ki.
CC(C)c1cccc2c1C(=O)N(COC(=O)c1c(Cl)cccc1Cl)S2(=O)=O ... 0.03
CCc1cccc2c1C(=O)N(COC(=O)c1c(Cl)cccc1Cl)S2(=O)=O ... 0.17
O=C(OCN1C(=O)c2ccccc2S1(=O)=O)c1c(Br)cccc1Br ... 8.5

Turning now to a further record.
Which measured Ki belongs to O=C(OCN1C(=O)c2ccccc2S1(=O)=O)c1ccccc1 , tested on Neutrophil elastase (Homo sapiens, UniProt P08246)?
31
